- System: HS 578T breast
- Method description: NCI-60 one-dose screen, 48 h (100 = growth as untreated, 0 = no growth, -100 = all killed)
- Assay context: 10 µM unless noted
Compounds without any hit were thinned out: in the full panel of roughly 83,000, 20% have a hit.
Measured metric: growth (%)
// return numeric value only (unit: %, not printed)

• Fc1ccc2c(c1)c(-c1nc(-c3c[nH]c4ncccc34)cs1)cn2CCN1CCOCC1 = 53.8

Consider the molecule "C[C@@]12CC=C3c4nc(Nc5cccc(O)c5)sc4CC[C@]3(C)[C@H]1CC[C@]1(C)C(=O)CC[C@@H]21" and give its measured growth.
7.41

Follow-up item: "CCOC(=O)c1c(C)n(Cc2ccccc2)c2cc(CN(C)C)c(O)cc12"
61.1

Follow-up item: "CCn1c2ccccc2c2cc(C(=O)c3ccc(C)c4ccccc34)ccc21"
30.1

Follow-up item: CCCCCSC1C2C(=O)C(Br)=CC13CCNc1c(O)c4c5c(c13)=[N+]2CCC=5C=N4 (stereo not drawn)
4.01

Follow-up item: "Cc1ccc(Nc2nc3c(s2)C2=CC[C@@H]4[C@H](CC[C@]5(C)C(=O)CC[C@@H]45)[C@@]2(C)CC3)cc1"
28.1

Follow-up item: "COC(=O)[C@H](Cc1ccccc1)NC(=O)c1csc([C@@H](C[C@H](C(C)C)N(C)C(=O)[C@@H](NC(=O)[C@H]2CCCCN2C)C2CC2)OC(C)=O)n1"
6.85

Follow-up item: "CC1(C)N=C(N)N=C(N)N1c1cccc(CCCCc2ccc(Cl)c(S(=O)(=O)F)c2)c1"
83.9

* * *

- Test system: RPMI-8226 leukemia
- Method description: NCI-60 one-dose screen, 48 h (100 = growth as untreated, 0 = no growth, -100 = all killed)
- Assay context: 10 µM unless noted
The panel holds about 83,000 compounds, 20% with a hit somewhere; the sample as a whole holds those more often.
# growth annotations
// return numeric value only (unit: %, not printed)

Some entries whose results are on file:
• ClCCN(CCCl)c1ccc(/C=N/Nc2ncnc3nc[nH]c23)cc1 = 91.9
• O=C1NC(=O)C(=Cc2cn(CCCCCCn3c4ccccc4c(=O)c4ccccc43)c3ccccc23)C(=O)N1 = 76.2
• O=C1C(=Cc2cn(Cc3ccccc3)c3ccccc23)C(=O)N(Cc2ccccc2)C(=O)N1Cc1ccccc1 = 93.2
• C[C@]12C[C@@H](CO)[C@H](O)C[C@@H]1CC[C@@H]1[C@@H]2CC[C@]2(C)[C@@H](O)CC[C@@H]12 = 91.9
• O=C(Nc1ccc(O)cc1)C(Cl)(Cl)Cl = 112
• CC1CCCC(C[N+](C)(C)C)C1=O (centres undefined) = 105
• O=C(Nc1ccc([N+](=O)[O-])cc1)C(Cl)(Cl)Cl = 106
• COC(=O)[C@@H](C)C[C@H](Cc1ccccc1)NC(=O)c1nc([C@@H](C[C@H](C(C)C)N(C)C(=O)[C@@H](NC(=O)[C@H]2CCCCN2C)C(C)C)OC(C)=O)sc1C = 18.2

Consider the compound "Clc1cccc(N2COOC3(OOC2)C2CC4CC(C2)CC3C4)c1" and give its measured growth.
53.8

* * *

- Test system: SNB-19 CNS
- Method description: NCI-60 one-dose screen, 48 h (100 = growth as untreated, 0 = no growth, -100 = all killed)
- Assay context: 10 µM unless noted
The panel holds about 83,000 compounds, 20% with a hit somewhere; the sample as a whole holds those more often.
Threshold check on growth: at or above 40% gives Condition met, strictly below gives Condition not met.

* O=C1N[C@@H]2[C@@H](O)[C@@H](O)[C@H](O)C[C@H]2c2cc3c(c(O)c21)OCO3 | Condition not met
* O=C(Nc1ccncc1F)c1cn(CC2CC2)c2ccccc12 | Condition met
* ClCCN(CCCl)Cc1ccc(Nc2ccnc3cc(Cl)ccc23)cc1 | Condition met
* O=C(N/N=C\c1ccc(N(CCCl)CCCl)cc1Cl)c1cccnc1 | Condition met
* CC[C@H](C)[C@H](NC(=O)[C@H]1CCCCN1C)C(=O)N(C)[C@H](CC(=O)c1nc(C(=O)N[C@@H](Cc2ccccc2)C[C@H](C)C(=O)O)cs1)C(C)C | Condition met
* c1cc2c(c3c1CCNC3)OCO2 | Condition met
* CCCOC(=O)N[C@H]1CCc2c(Br)c(OC)c(OC)c(OC)c2-c2ccc(SC)c(=O)cc21 | Condition not met
* CCCCCCCCC(CO)NCCc1ccccc1 (configuration not stated) | Condition met
* CC(C)=CCC/C(C)=C/C=N\N=C(/N)N[N+](=O)[O-] | Condition met
* CCOC(=O)[C@@H](C)C[C@H](Cc1ccccc1)NC(=O)c1csc([C@@H](C[C@H](C(C)C)N(C)C(=O)[C@H](CC)NC(=O)[C@H]2CCCCN2C)OC(C)=O)n1 | Condition not met

Now for another entry.
Given the entry "CC[C@H](C)[C@@H]1OC(=O)C(C)(C)[C@H](O)[C@H](Cc2ccccc2)OC(=O)[C@H](C(C)C)OC(=O)[C@@H](NC(=O)c2cccc(NC=O)c2O)[C@@H](C)OC1=O" , answer whether its growth meets or surpasses 40%.
Condition met
